The measured values listed here are drawn from the supplement of paper PMC11246515.

Assay method text: total protein half-life in vivo (active degradation + dilution); higher = more stable protein
Test conditions: wild type E. coli NCM3722; growth: C-lim chemostat; doubling time 3 h
Quick reference for total protein half-life in vivo among some sequences
Readout: total protein half-life in vivo (h)

Seq	Readout	Modifier	Recorded value
MQKQAELYRGKAKTVYSTENPDLLVLEFRNDTSAGDGARIEQFDRKGMVNNKFNYFIMSKLAEAGIPTQMERLLSDTECLVKKLDMVPVECVVRNRAAGSLVKRLGIEEGIELNPPLFDLFLKNDAMHDPMVNESYCETFGWVSKENLARMKELTYKANDVLKKLFDDAGLILVDFKLEFGLYKGEVVLGDEFSPDGSRLWDKETLEKMDKDRFRQSLGGLIEAYEAVARRLGVQLD [P0A7D7]	total protein half-life in vivo	=	3.26
MLEMLMQWYRRRFSDPEAIALLVILVAGFGIIFFFSGLLAPLLVAIVLAYLLEWPTVRLQSIGCSRRWATSIVLVVFVGILLLMAFVVLPIAWQQGIYLIRDMPGMLNKLSDFAATLPRRYPALMDAGIIDAMAENMRSRMLTMGDSVVKISLASLVGLLTIAVYLVLVPLMVFFLLKDKEQMLNAVRRVLPRNRGLAGQVWKEMNQQITNYIRGKVLEMIVVGIATWLGFLLFGLNYSLLLAVLVGFSVLIPYIGAFVVTIPVVGVALFQFGAGTEFWSCFAVYLIIQALDGNLLVPVLFSEAVNLHPLVIILSVVIFGGLWGFWGVFFAIPLATLIKAVIHAWPDGQIAQE [P0AFI9]	total protein half-life in vivo	>	4
MKILLAALTSSFMLVGCTPRIEVAAPKEPITINMNVKIEHEIIIKADKDVEELLETRSDLF	total protein half-life in vivo	=	3.15
MARARGRGRRDLKSEINIVPLLDVLLVLLLIFMATAPIITQSVEVDLPDATESQAVSSNDNPPVIVEVSGIGQYTVVVEKDRLERLPPEQVVAEVSSRFKANPKTVFLIGGAKDVPYDEIIKALNLLHSAGVKSVGLMTQPI [P0ABV6]	total protein half-life in vivo	=	3.11

* * *

Quick reference for total protein half-life in vivo among some sequences
Assay method text: total protein half-life in vivo (active degradation + dilution); higher = more stable protein
Test conditions: wild type E. coli NCM3722; growth: C-lim chemostat; doubling time 12 h

Seq	total protein half-life in vivo / h
MSKKLIALCACPMGLAHTFMAAQALEEAAVEAGYEVKIETQGADGIQNRLTAQDIAEATIIIHSVAVTPEDNERFESRDVYEITLQDAIKNAAGIIKEIEEMIASEQQ	5.83
MSIKLIAVDMDGTFLSDQKTYNRERFMAQYQQMKAQGIRFVVASGNQYYQLISFFPEIANEIAFVAENGGWVVSEGKDVFNGELSKDAFATVVEHLLTRPEVEIIACGKNSAYTLKKYDDAMKTVAEMYYHRLEYVDNFDNLEDIFFKFGLNLSDELIPQVQKALHEAIGDIMVSVHTGNGSIDLIIPGVHKANGLRQLQKLWGIDDSEVVVFGDGGNDIEMLRQAGFSFAMENAGSAVVAAAKYRAGSNNREGVLDVIDKVLKHEAPFDQ	6.88
MVKVYAPASSANMSVGFDVLGAAVTPVDGALLGDVVTVEAAETFSLNNLGRFADKLPSEPRENIVYQCWERFCQELGKQIPVAMTLEKNMPIGSGLGSSACSVVAALMAMNEHCGKPLNDTRLLALMGELEGRISGSIHYDNVAPCFLGGMQLMIEENDIISQQVPGFDEWLWVLAYPGIKVSTAEARAILPAQYRRQDCIAHGRHLAGFIHACYSRQPELAAKLMKDVIAEPYRERLLPGFRQARQAVAEIGAVASGISGSGPTLFALCDKPETAQRVADWLGKNYLQNQEGFVHICRLDTAGARVLEN	8.58
